STUDY TARGET: human 11β-HSD1 (Homo sapiens)
Construct: expressed in transfected cells; host or cells: CHO cells (microsomes)
Sequence (P28845 whole entry): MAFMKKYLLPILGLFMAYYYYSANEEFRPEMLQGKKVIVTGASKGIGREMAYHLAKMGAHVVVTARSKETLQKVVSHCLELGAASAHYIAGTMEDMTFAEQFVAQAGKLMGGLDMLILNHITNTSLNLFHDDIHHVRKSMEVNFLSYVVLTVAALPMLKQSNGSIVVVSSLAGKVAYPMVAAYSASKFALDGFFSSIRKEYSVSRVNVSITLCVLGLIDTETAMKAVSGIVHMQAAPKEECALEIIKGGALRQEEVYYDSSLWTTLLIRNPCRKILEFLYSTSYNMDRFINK
EXPERIMENT DESCRIPTION: Inhibition of microsomal preparation of 11β-HSD1 (SPA, Biological Test Example 1)
Assay type: biochemical
EXPERIMENTAL CONDITIONS: 111 nM
REPORTED METRIC: inhibition at 0.111 µM (%)
Expressed in %, but write only the number.

COMPOUND: CNC(=O)c1ccc2c(c1)C1(CCN(C(=O)/C=C/c3ccccc3C(F)(F)F)CC1)C(=O)N2C
UNIT ANNOTATION: %
inhibition at 0.111 µM: 21.3
--
COMPOUND: CCN1C(=O)C2(CCN(C(=O)CCc3ccccc3C(F)(F)F)CC2)c2cc(C(=O)OC)ccc21
UNIT ANNOTATION: %
inhibition at 0.111 µM: 52.4

Inquiry: Consider the compound O=C(O)CC1CC2(CCN(C(=O)/C=C/c3ccccc3C(F)(F)F)CC2)c2c(Br)cccc21 (racemic) and give its measured inhibition at 0.111 µM.
Reply text: 97.4

Inquiry: Consider the compound CCOC(=O)CC1CC2(CCN(C(=O)/C=C/c3ccccc3C(F)(F)F)CC2)c2c(Br)cccc21 (racemic) and give its measured inhibition at 0.111 µM.
Reply text: 89.4

Inquiry: Consider the compound NC(=O)CC1CC2(CCN(C(=O)/C=C/c3ccccc3C(F)(F)F)CC2)c2cc(F)ccc21 (racemic) and give its measured inhibition at 0.111 µM.
Reply text: 90.9

Inquiry: Consider the compound `O=C1NC2(CCN(C(=O)Cc3ccccc3C(F)(F)F)CC2)c2c(Cl)cc(Cl)cc21` and give its measured inhibition at 0.111 µM.
Reply text: 68.9

Inquiry: Consider the compound `CN1C(=O)c2cccc(Cl)c2C12CCN(C(=O)/C=C/c1c(Cl)cccc1Cl)CC2` and give its measured inhibition at 0.111 µM.
Reply text: 79
